# key: entry, value: ED50
# Test system: dd-male mice
# Protocol Text: Analgetic action, Haffner's Method (tail root clamping)
# Type: in vivo
# Particulars: Mus musculus, ip, abdominal cavity, hydrochloride

{"Compound": "COc1ccc(C2c3ccccc3CN(CCCC(=O)c3ccc(F)cc3)CCN2C)cc1 (stereo not drawn)", "ED50 (mg/kg)": 18.4}
{"Compound": "CN1CCN(CCCC(=O)c2ccc(F)cc2)Cc2ccccc2C1c1ccccc1 (stereo not drawn)", "ED50 (mg/kg)": 44.2}
{"Compound": "COc1ccc(CCN2CCN(C)C(c3ccc(OC)cc3)c3ccccc3C2)cc1 (stereo not drawn)", "ED50 (mg/kg)": 26.2}
{"Compound": "c1ccc(C2NCCN(CC3CC3)Cc3ccccc32)cc1 (stereo not drawn)", "ED50 (mg/kg)": 17.1}
{"Compound": "COc1ccc(C2NCCN(CCCC(=O)c3ccc(F)cc3)Cc3ccccc32)cc1 (stereo not drawn)", "ED50 (mg/kg)": 30.7}
{"Compound": "CCOC(=O)/C=C/C(=O)Nc1ccc(CCN2CCNC(c3ccccc3)c3ccccc3C2)cc1 (stereo not drawn)", "ED50 (mg/kg)": 80.3}

----------
# Protocol Text: Acute Toxity, rat
# Particulars: in vivo, oral dosage, 7 days
Lab note: compare LD50 at 168 h with 600 mg/kg, writing Criterion met if less and Criterion not met if equal or more.

{"Compound": "COc1ccc(C2NCCN(CCCC(=O)c3ccc(F)cc3)Cc3ccccc32)cc1 (stereo not drawn) [Compound I-f]", "Answer Label": "Criterion not met"}
{"Compound": "c1ccc(C2NCCN(CC3CC3)Cc3ccccc32)cc1 (stereo not drawn) [Compound I-d]", "Answer Label": "Criterion met"}
{"Compound": "COc1ccc(CCN2CCN(C)C(c3ccc(OC)cc3)c3ccccc3C2)cc1 (stereo not drawn) [Compound I-b]", "Answer Label": "Criterion not met"}
{"Compound": "CN1CCN(CCCC(=O)c2ccc(F)cc2)Cc2ccccc2C1c1ccccc1 (stereo not drawn) [Compound I-c]", "Answer Label": "Criterion not met"}
{"Compound": "COc1ccc(C2c3ccccc3CN(CCCC(=O)c3ccc(F)cc3)CCN2C)cc1 (stereo not drawn) [Compound I-a]", "Answer Label": "Criterion not met"}

----------
# System: dd-male mice
# Protocol Text: Analgetic action, Acetic Acid Stretching Method
# Format: in vivo
# Particulars: Mus musculus, po, orally given 30 minutes before acetic acid, hydrochloride
Lab note: compare ED50 with 10 mg/kg, writing MET if less and NOT MET if equal or more.

{"Compound": "COc1ccc(C2c3ccccc3CN(CCCC(=O)c3ccc(F)cc3)CCN2C)cc1 (stereo not drawn) [Compound I-a]", "Tgt": "dd-male mice", "Answer Label": "NOT MET"}
{"Compound": "COc1ccc(C2NCCN(CCCC(=O)c3ccc(F)cc3)Cc3ccccc32)cc1 (stereo not drawn) [Compound I-f]", "Tgt": "dd-male mice", "Answer Label": "NOT MET"}
{"Compound": "c1ccc(C2NCCN(CC3CC3)Cc3ccccc32)cc1 (stereo not drawn) [Compound I-d]", "Tgt": "dd-male mice", "Answer Label": "NOT MET"}
{"Compound": "CCOC(=O)/C=C/C(=O)Nc1ccc(CCN2CCNC(c3ccccc3)c3ccccc3C2)cc1 (stereo not drawn) [Compound I-e]", "Tgt": "dd-male mice", "Answer Label": "NOT MET"}
{"Compound": "COc1ccc(CCN2CCN(C)C(c3ccc(OC)cc3)c3ccccc3C2)cc1 (stereo not drawn) [Compound I-b]", "Tgt": "dd-male mice", "Answer Label": "NOT MET"}
{"Compound": "CN1CCN(CCCC(=O)c2ccc(F)cc2)Cc2ccccc2C1c1ccccc1 (stereo not drawn) [Compound I-c]", "Tgt": "dd-male mice", "Answer Label": "MET"}
